Attribution: patent US5807855A

- STUDY_SYSTEM: DA D2 receptors (Rattus norvegicus, UniProt P61169)
- Construct: DA D2 receptors in rat striatal membranes; from tissue; host or cells: rat striatal membranes
- Sequence (P61169 whole entry): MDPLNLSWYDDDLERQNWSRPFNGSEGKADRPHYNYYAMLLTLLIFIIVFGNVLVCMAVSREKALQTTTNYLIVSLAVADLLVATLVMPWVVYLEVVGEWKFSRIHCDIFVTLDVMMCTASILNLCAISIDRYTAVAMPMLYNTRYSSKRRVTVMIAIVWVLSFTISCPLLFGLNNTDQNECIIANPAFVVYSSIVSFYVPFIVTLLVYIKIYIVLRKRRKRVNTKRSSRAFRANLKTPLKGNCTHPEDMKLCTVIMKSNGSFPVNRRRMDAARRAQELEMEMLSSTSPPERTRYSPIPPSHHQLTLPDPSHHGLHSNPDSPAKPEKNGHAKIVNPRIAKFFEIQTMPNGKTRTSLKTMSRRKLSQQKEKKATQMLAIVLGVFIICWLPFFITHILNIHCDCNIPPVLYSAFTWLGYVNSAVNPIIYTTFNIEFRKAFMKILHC
- ASSAY: Inhibition of 3H-spiperone binding to DA D2 receptors in rat striatal membranes
- CONDITION_LABEL: Receptor Binding; IC50, D2 3H-Spi
ASSAY_ENDPOINT: IC50 (nM)
Write the answer as a number in nM, unit excluded.

For the compound CN1CCN([C@@H]2C[C@@H](c3ccccc3)c3ccc(Cl)cc32)CC1(C)C (racemic) [Compound 10] , report IC50. 20

====

- STUDY_SYSTEM: DA D1 receptor (Rattus norvegicus, UniProt P18901)
- Sequence (P18901 whole entry): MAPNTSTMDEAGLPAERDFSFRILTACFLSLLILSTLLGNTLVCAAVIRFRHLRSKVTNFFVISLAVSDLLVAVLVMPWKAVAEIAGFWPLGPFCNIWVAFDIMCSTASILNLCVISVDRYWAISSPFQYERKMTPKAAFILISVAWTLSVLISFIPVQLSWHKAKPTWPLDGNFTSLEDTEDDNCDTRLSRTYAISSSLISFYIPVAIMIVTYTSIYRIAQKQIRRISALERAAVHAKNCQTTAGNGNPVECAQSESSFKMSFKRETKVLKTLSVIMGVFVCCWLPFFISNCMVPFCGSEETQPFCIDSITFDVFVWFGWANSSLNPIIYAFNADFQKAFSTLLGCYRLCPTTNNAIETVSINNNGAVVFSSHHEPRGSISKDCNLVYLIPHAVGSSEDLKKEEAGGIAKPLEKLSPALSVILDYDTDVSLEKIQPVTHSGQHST
- ASSAY: biochemical
- Assay type: binding
- CONDITION_LABEL: Receptor Binding; IC50, D1 3H-SCH
pIC50: −log10 of the molar value.
Param threshold (8) applies to pIC50; output Y when value >= threshold, N when value < threshold.

Is the recorded value of pIC50 equal to or greater than 8 for this compound? CN1CCN([C@@H]2C[C@@H](c3ccc(F)cc3)c3ccc(Br)cc32)CC1(C)C (racemic) [Compound 8] Y

Is the recorded value of pIC50 equal to or greater than 8 for this compound? Cc1ccc2c(c1)[C@H](N1CCN(C)C(C)(C)C1)C[C@H]2c1ccc(F)cc1 (racemic) [Compound 5] Y

Is the recorded value of pIC50 equal to or greater than 8 for this compound? CN1CCN([C@@H]2C[C@@H](c3ccc(F)cc3)c3cc(Cl)ccc32)CC1(C)C (racemic) [Compound 16] N

Is the recorded value of pIC50 equal to or greater than 8 for this compound? CN1CCN([C@@H]2C[C@@H](c3ccc(F)cc3)c3cccc(F)c32)CC1(C)C (racemic) [Compound 36] Y

Is the recorded value of pIC50 equal to or greater than 8 for this compound? CN1CCN([C@@H]2C[C@@H](c3ccsc3)c3ccc(Cl)cc32)CC1(C)C (racemic) [Compound 14] Y

Is the recorded value of pIC50 equal to or greater than 8 for this compound? CC1(C)CN([C@@H]2C[C@@H](c3ccsc3)c3ccc(Cl)cc32)CCN1 (racemic) [Compound 13] Y

Is the recorded value of pIC50 equal to or greater than 8 for this compound? CN1CCN([C@@H]2C[C@@H](c3ccccc3F)c3ccc(Cl)cc32)CC1(C)C (racemic) [Compound 11] Y

Is the recorded value of pIC50 equal to or greater than 8 for this compound? CN1CCN([C@@H]2C[C@@H](c3ccc(F)cc3)c3cccc(Cl)c32)CC1(C)C (racemic) [Compound 17] N

Is the recorded value of pIC50 equal to or greater than 8 for this compound? CN1CCN([C@@H]2C[C@@H](c3ccc(F)cc3)c3ccc(C(F)(F)F)cc32)CC1(C)C (racemic) [Compound 7] Y

Is the recorded value of pIC50 equal to or greater than 8 for this compound? CN1CCN([C@@H]2C[C@@H](c3ccc(F)cc3)c3ccc(F)cc32)CC1(C)C (racemic) [Compound 38] Y
